Cited source: patent US11053219B2

Assay: Pharmacokinetic study in C57BL/6 mice
Assay type: in vivo
Conditions: male, mouse, plasma, Oral (10 mg/kg)
Below, each of the molecules is paired with its reported half-life value.
Write it as a number; the unit min goes unstated.

Known results for molecules:
(Q) May I ask what half-life has been recorded for "[2H]C([2H])([2H])CC(=O)c1cnc(Nc2ccc(C(C)(C)O)c(F)n2)cc1Nc1cccc(-c2ncn(C([2H])([2H])[2H])n2)c1OC" ?
(A) 196

(Q) May I ask what half-life has been recorded for "[2H]C([2H])([2H])CC(=O)c1cnc(NC(=O)C2CC2)cc1Nc1nccc(-c2ncn(C([2H])([2H])[2H])n2)c1OC" ?
(A) 121

Let us examine a further case.
(Q) May I ask what half-life has been recorded for "[2H]C([2H])([2H])CC(=O)c1cnc(NC(=O)C2CC2)cc1Nc1cccc(-c2ncn(C([2H])([2H])[2H])n2)c1OC" ?
(A) 127

---

Assay: Pharmacokinetic study in Sprague Dawley rats
Assay type: in vivo
Settings: rat, plasma, Oral (5 mg/kg), read-out: C0 or Cmax (Cmax)
QUANTITY MEASURED: log10 of Cmax (log10 of the value in ng/mL)
Scale type: logarithmic (base 10). Underlying Cmax unit: ng/mL.

(Q) May I ask what log10 of Cmax has been recorded for [2H]C([2H])([2H])CC(=O)c1cnc(NC(=O)C2CC2)cc1Nc1nccc(-c2ncn(C([2H])([2H])[2H])n2)c1OC [Example 200] ?
(A) 2.98

(Q) May I ask what log10 of Cmax has been recorded for [2H]C([2H])([2H])CC(=O)c1cnc(Nc2cccc(C#N)n2)cc1Nc1nccc(-c2ncn(C([2H])([2H])[2H])n2)c1OC [Example 199] ?
(A) 2.15

(Q) May I ask what log10 of Cmax has been recorded for [2H]C([2H])([2H])CC(=O)c1cnc(NC(=O)C2CC2)cc1Nc1cccc(-c2ncn(C([2H])([2H])[2H])n2)c1OC [Example 195] ?
(A) 3.10

(Q) May I ask what log10 of Cmax has been recorded for [2H]C([2H])([2H])CC(=O)c1cnc(Nc2cccc(C#N)n2)cc1Nc1cccc(-c2ncn(C([2H])([2H])[2H])n2)c1OC [Example 198] ?
(A) 2.42

(Q) May I ask what log10 of Cmax has been recorded for [2H]C([2H])([2H])CC(=O)c1cnc(Nc2ccc(C(C)(C)O)c(F)n2)cc1Nc1nccc(-c2ncn(C([2H])([2H])[2H])n2)c1OC [Example 201] ?
(A) 2.27

(Q) May I ask what log10 of Cmax has been recorded for [2H]C([2H])([2H])CC(=O)c1cnc(Nc2ccc(C(C)(C)O)c(F)n2)cc1Nc1cccc(-c2ncn(C([2H])([2H])[2H])n2)c1OC [Example 202] ?
(A) 1.70

---

Assay: Pharmacokinetic study in cynomolgus monkeys
Type: in vivo
Settings: cynomolgus monkey, plasma, intravenous, printed on the Oral (2 mg/kg) line (probably belongs to I.V. 1 mg/kg)
QUANTITY MEASURED: clearance
Remember to put the unit after the number in your answer.

(Q) May I ask what clearance has been recorded for "[2H]C([2H])([2H])CC(=O)c1cnc(Nc2ccc(C(C)(C)O)c(F)n2)cc1Nc1nccc(-c2ncn(C([2H])([2H])[2H])n2)c1OC" ?
(A) 23.2 mL/min/kg
